The origin of these recorded values is paper PMC4259358.

study_target: T1, recombinant IPO5 (importin β3/kap β3) (UniProt O00410-1 1-1097)
T1 sequence (looked up): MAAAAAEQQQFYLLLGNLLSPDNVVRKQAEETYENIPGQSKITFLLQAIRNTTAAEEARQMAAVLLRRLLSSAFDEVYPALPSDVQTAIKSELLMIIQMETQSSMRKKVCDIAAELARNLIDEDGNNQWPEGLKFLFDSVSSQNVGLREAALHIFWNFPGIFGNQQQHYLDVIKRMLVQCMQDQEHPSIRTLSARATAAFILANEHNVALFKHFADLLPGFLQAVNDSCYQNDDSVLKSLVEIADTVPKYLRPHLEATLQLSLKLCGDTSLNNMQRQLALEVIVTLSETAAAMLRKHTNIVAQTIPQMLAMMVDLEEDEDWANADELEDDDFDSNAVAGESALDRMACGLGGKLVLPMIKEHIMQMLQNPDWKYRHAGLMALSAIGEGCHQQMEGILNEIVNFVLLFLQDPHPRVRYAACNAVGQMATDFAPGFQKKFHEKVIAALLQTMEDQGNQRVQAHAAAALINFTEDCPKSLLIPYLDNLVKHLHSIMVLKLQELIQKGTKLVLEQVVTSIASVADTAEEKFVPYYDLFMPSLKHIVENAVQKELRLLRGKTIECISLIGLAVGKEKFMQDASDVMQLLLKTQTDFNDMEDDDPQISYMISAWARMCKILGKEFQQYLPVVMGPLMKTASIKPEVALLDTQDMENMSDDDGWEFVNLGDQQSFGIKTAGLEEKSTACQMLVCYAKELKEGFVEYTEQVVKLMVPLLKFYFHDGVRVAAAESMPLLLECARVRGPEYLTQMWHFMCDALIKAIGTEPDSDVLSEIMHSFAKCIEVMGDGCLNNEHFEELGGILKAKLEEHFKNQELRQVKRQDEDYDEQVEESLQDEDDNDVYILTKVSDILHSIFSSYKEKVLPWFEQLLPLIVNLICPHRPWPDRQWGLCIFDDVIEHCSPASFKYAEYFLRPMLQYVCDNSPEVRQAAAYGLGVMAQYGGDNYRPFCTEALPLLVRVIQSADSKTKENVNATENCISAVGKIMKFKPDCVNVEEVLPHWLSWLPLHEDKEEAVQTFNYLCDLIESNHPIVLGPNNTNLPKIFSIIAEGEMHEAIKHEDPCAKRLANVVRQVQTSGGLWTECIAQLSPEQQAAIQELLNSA
experiment_description: ELISA; plates coated with synthetic peptide (10 µg/ml, carbonate buffer pH 9.6); increasing concentrations of recombinant NTF, 2 h, room temperature; anti-HIS detection; apparent Kd
condition_context: both partners purified
measured_metric: pKd
Friendly reminder that pKd comes from taking -log10 of the concentration in mol/L.

Inquiry: Returns the measured pKd for the input binder. Input: PRRGPRLGVRRQIKIWFQNRRMKWKK (source: synthetic peptide (GL Biochem, HPLC >85%)) [Core NLS 2 synthetic peptide (fused to penetratin)]
Reply text: 7.10

Inquiry: Returns the measured pKd for the input binder. Input: PRGRRQPIPKDRRSTGKAWGKPRQIKIWFQNRRMKWKK (source: synthetic peptide (GL Biochem, HPLC >85%)) [Core NLS 3 synthetic peptide (fused to penetratin)]
Reply text: 7.39

Inquiry: Returns the measured pKd for the input binder. Input: PKPQRKTKRNTNRRPRQIKIWFQNRRMKWKK (source: synthetic peptide (GL Biochem, HPLC >85%)) [Core NLS 1 synthetic peptide (fused to penetratin)]
Reply text: 7.46
